Target: human PAD4 (Homo sapiens, UniProt Q9UM07)
Construct: human PAD4 (NM_012387), A2P663, was PCR amplified; His-SUMO (N, cleaved yes)
Sequence (Q9UM07 2-663): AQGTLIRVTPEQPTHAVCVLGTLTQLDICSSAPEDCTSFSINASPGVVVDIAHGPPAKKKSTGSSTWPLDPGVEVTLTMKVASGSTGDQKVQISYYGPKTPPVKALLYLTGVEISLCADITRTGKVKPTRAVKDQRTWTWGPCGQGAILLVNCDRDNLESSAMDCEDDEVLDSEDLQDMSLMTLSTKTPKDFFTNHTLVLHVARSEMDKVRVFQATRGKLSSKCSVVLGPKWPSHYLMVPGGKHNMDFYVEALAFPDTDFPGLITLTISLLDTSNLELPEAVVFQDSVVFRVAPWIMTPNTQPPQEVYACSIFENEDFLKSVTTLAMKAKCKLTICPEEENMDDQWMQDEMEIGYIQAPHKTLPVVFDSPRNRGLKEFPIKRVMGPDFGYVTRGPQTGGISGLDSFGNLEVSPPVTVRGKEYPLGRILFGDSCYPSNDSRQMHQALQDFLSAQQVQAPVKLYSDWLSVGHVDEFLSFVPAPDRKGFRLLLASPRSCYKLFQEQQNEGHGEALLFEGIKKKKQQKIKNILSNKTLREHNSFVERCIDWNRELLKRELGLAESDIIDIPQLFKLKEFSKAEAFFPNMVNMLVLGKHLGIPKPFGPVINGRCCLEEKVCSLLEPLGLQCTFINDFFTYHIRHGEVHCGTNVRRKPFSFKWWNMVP
Experiment: In vitro PAD4 BAEE biochemical assay
Conditions: human PAD4, BAEE substrate; 5 nM PAD4, 2 mM calcium chloride, 3 mM BAEE; geometric mean of multiple experiments
pIC50: −log10 of the molar value.
The label depends only on pIC50: condition met if it is at least 7, condition not met if it is smaller.

Is pIC50 for CCc1ccc2cc(-c3nc4cc(C(=O)N5CCC[C@@H](N)C5)cc(OC)n4c3C3CC3)n(CC3CC3)c2n1 [Example 585] at or above 7?
condition not met

Is pIC50 for COc1cc(C(=O)N2[C@H]3CC[C@@H]2[C@H](N)C3)cc2nc(-c3cc4ccc(C5CCN(C(=O)C(C)(C)C)C5)nc4n3CC3CC3)c(C)n12 (stereo partly shown) [Example 530] at or above 7?
condition not met

Is pIC50 for COc1cc(C(=O)N2CCC[C@@H](N)C2)cc2nc(-c3cc4ccc(C(NC(C)=O)C5CC5)nc4n3CC3CC3)c(C)n12 (stereo partly shown) [Example 194] at or above 7?
condition not met

Is pIC50 for COc1cc(C(=O)N[C@@H]2CNCC[C@H]2C)cc2nc(-c3cc4ccc(N(C(F)F)S(C)(=O)=O)nc4n3CC3CC3)c(C)n12 [Example 281] at or above 7?
condition not met

Is pIC50 for COc1cc(C(=O)N2[C@H]3CC[C@@H]2[C@H](N)C3)cc2nc(-c3cc4ccc([C@@H](C)NC(=O)N5CCOC[C@H]5C(F)(F)F)nc4n3CC3CC3)c(C)n12 [Example 200] at or above 7?
condition met

###

Would you mind telling me the reported pIC50 of each entry?
Target: human PAD4 (Homo sapiens)
Construct: human PAD4 (NM_012387), A2P663, was PCR amplified; His-SUMO (N, cleaved yes)
Test: In vitro PAD4 BAEE biochemical assay
Settings: human PAD4, BAEE substrate; 5 nM PAD4, 2 mM calcium chloride, 3 mM BAEE; geometric mean of multiple experiments
// pIC50: -log10(molar conc.)

Data point: CCc1c(-c2cc3ccc(N(C(F)F)S(C)(=O)=O)nc3n2CC2CC2)nc2cc(C(=O)N3CCC[C@@H](N)C3)cc(OC)n12 [Example 399] ; pIC50 = 6.55

Data point: COc1cc(C(=O)N2[C@@H]3CC[C@@H](N)[C@H]2CC3)cc2nc(-c3cc4ccc([C@@H](C)NC(=O)C(C)(C)C)nc4n3CC3CC3)c(C)n12 [Example 170] ; pIC50 = 6.79

Data point: COc1cc(C(=O)N2[C@H]3CC[C@@H]2[C@H](N)C3)cc2nc(-c3cc4ccc(N5C(=O)CCCC5C)nc4n3CC3CC3)c(C)n12 (some centres unmarked) [Example 456] ; pIC50 = 6.60

Data point: COc1cc(C(=O)N2[C@H]3CC[C@@H]2[C@H](N)C3)cc2nc(-c3cc4ccc([C@@H](C)NC(=O)c5ccccc5C(F)F)nc4n3CC3CC3)c(C)n12 [Example 11] ; pIC50 = 6.60

Data point: COc1cc(C(=O)N2CCC[C@@H](N)C2)cc2nc(-c3cc4ccc(C(C)C)nc4n3CC3CC3)c(C)n12 [Example 608] ; pIC50 = 6.26

Data point: COc1cc(C(=O)NC[C@H]2CCCN2)cc2nc(-c3cc4ccc(N(C(F)F)S(C)(=O)=O)nc4n3CC3CC3)c(C)n12 [Example 304] ; pIC50 = 4.72

Data point: CCC1C(N)C2CCC1N2C(=O)c1cc(OC)n2c(C)c(-c3cc4ccc(N(C(F)F)S(C)(=O)=O)nc4n3CC3CC3)nc2c1 (single isomer, unassigned) [Example 346] ; pIC50 = 5.67

Data point: COc1cc(C(=O)N2[C@H]3CC[C@@H]2[C@H](N)C3)cc2nc(-c3cc4ccc([C@@H](C)NC(=O)C56CC(Cl)(C5)C6)nc4n3CC3CC3)c(C)n12 [Example 133] ; pIC50 = 7.25

Data point: COc1cc(C(=O)N2C[C@H](N)CC[C@@H]2C)cc2nc(-c3cc4ccc(N(C(F)F)S(C)(=O)=O)nc4n3CC34CC(C3)C4)c(C)n12 [Example 496] ; pIC50 = 6.38

Data point: CCOC(=O)N(C)c1ccc2cc(-c3nc4cc(C(=O)N5[C@H]6CC[C@@H]5[C@@H](N)CC6)cc(OC)n4c3C)n(CC3CC3)c2n1 [Example 491] ; pIC50 = 4.49

Data point: COc1cc(C(=O)N2[C@H]3CC[C@@H]2[C@H](N)C3)cc2nc(-c3cc4ccc([C@@H](C)NC(=O)c5ccc(F)cc5F)nc4n3CC3CC3)c(C)n12 [Example 56] ; pIC50 = 6.60

Data point: CCc1ccc2cc(-c3nc4cc(C(=O)N5[C@H]6CC[C@@H]5[C@H](N)C6)cc(OC)n4c3C)n(CC3CC3)c2n1 [Example 584] ; pIC50 = 7.07

Data point: COc1cc(C(=O)N2[C@H]3CC[C@@H]2[C@H](N)C3)cc2nc(-c3cc4ccc([C@@H](C)NC(=O)C5CCC5)nc4n3CC3CC3)c(C)n12 [Example 101] ; pIC50 = 7.65

Data point: COc1cc(C(=O)N2[C@H]3CC[C@@H]2[C@H](N)[C@H](O)C3)cc2nc(-c3cc4ccc([C@@H](C)NC(=O)C(C)(C)C)nc4n3CC3CC3)c(C)n12 [Example 60] ; pIC50 = 6.65

Data point: COc1cc(C(=O)N2[C@H]3CC[C@@H]2[C@H](N)C3)cc2nc(-c3cc4ccc([C@@H](C)NC(=O)c5ncco5)nc4n3CC3CC3)c(C)n12 [Example 73] ; pIC50 = 7.41

Data point: COc1cc(C(=O)N2[C@H]3CC[C@@H]2[C@H](N)C3)cc2nc(-c3cc4ccc(C(C)n5cncn5)nc4n3CC3CC3)c(C)n12 (some centres unmarked) [Example 546] ; pIC50 = 6.81

Data point: COc1cc(C(=O)N2[C@H]3CC[C@@H]2[C@H](N)C3)cc2nc(-c3cc4ccc(N(C(F)F)S(C)(=O)=O)nc4n3CC3CC3)c(CC(C)C)n12 [Example 429] ; pIC50 = 6.07

Data point: COC(=O)C12CC(C(=O)N[C@H](C)c3ccc4cc(-c5nc6cc(C(=O)N7[C@H]8CC[C@@H]7[C@H](N)C8)cc(OC)n6c5C)n(CC5CC5)c4n3)(C1)C2 [Example 159] ; pIC50 = 7.23

Data point: COc1cc(C(=O)N2[C@H]3CC[C@@H]2[C@H](N)C3)cc2nc(-c3cc4ccc(C5CCN(C(=O)N6CCCC6)C5)nc4n3CC3CC3)c(C)n12 (some centres unmarked) [Example 529] ; pIC50 = 6.82

Data point: COc1cc(C(=O)N[C@H]2CCCCNC2)cc2nc(-c3cc4ccc(N(C(F)F)S(C)(=O)=O)nc4n3CC3CC3)c(C)n12 [Example 296] ; pIC50 = 4.61

Data point: COc1cc(C(=O)N2[C@H]3CC[C@@H]2[C@H](N)C3)cc2nc(-c3cc4ccc([C@@H](C)NC(=O)c5cc6n(c5)CCOC6)nc4n3CC3CC3)c(C)n12 [Example 62] ; pIC50 = 7.32

Data point: COc1ccc2cc(-c3nc4cc(C(=O)N5CCC[C@@H](N)C5)cc(OC)n4c3C)n(CC3CC3)c2n1 [Example 629] ; pIC50 = 5.64

Data point: COc1cc(C(=O)N2[C@H]3CC[C@@H]2[C@H](N)C3)cc2nc(-c3cc4ccc(N5c6ccccc6CS5(=O)=O)nc4n3CC3CC3)c(C)n12 [Example 467] ; pIC50 = 6.44
